// data source = DBAASP

Candida albicans MIC data
Entry rule: numbers only, all in µM.

molecule	study system	reported result
CC[C@H](C)[C@H](NC(=O)[C@@H](NC(=O)[C@@H](NC(=O)[C@H](CCCN=C(N)N)NC(=O)[C@@H](NC(=O)[C@H](CCCN=C(N)N)NC(=O)[C@H](Cc1c[nH]c2ccccc12)NC(=O)[C@H](CCCCN)NC(=O)[C@@H](N)Cc1c[nH]c2ccccc12)C(C)C)C(C)C)[C@@H](C)O)C(=O)O [WKWRVRVTI]	Candida albicans	10.8
CC[C@H](C)[C@H](NC(=O)CN)C(=O)N[C@@H](Cc1ccccc1)C(=O)N[C@@H](CO)C(=O)N[C@@H](CCCCN)C(=O)N[C@@H](CC(C)C)C(=O)N[C@@H](C)C(=O)NCC(=O)N[C@@H](CCCCN)C(=O)N[C@@H](CCCCN)C(=O)N[C@@H](CC(C)C)C(=O)N[C@@H](CCCCN)C(=O)N[C@@H](CC(N)=O)C(=O)N[C@@H](CC(C)C)C(=O)N[C@@H](CC(C)C)C(=O)N[C@H](C(=O)N[C@@H](CO)C(=O)NCC(N)=O)[C@@H](C)CC [GIFSKLAGKKLKNLLISG]	Candida albicans	2.83

Turning now to a further molecule:
input: Under Candida albicans: MIC value of CC[C@H](C)[C@H](NC(=O)[C@H](CCCN=C(N)N)NC(=O)[C@H](Cc1ccccc1)NC(=O)[C@H](CCCN=C(N)N)NC(=O)[C@@H](N)C(C)C)C(=O)N[C@@H](CCCN=C(N)N)C(=O)N[C@H](C(=O)N[C@@H](C)C(=O)N[C@H](C(=O)N[C@H](C(=O)N[C@@H](CCCN=C(N)N)C(=O)N[C@@H](C)C(N)=O)[C@@H](C)CC)C(C)C)C(C)C [VRFRIRVAVIRA] ?
output: 4.12

* * *

- System: Pseudomonas aeruginosa PAO1
- assay remarks: ≥ marks a high value that may be exact or a test limit, other limits are often not marked, values filed in µg/mL are converted to µM
quantity kind: MIC (µM)
All answers are understood in µM, so give the number only.

compound	study system	reported result
CC[C@H](C)[C@H](NC(=O)[C@H](Cc1c[nH]c2ccccc12)NC(=O)[C@@H](NC(=O)[C@H](Cc1c[nH]c2ccccc12)NC(=O)[C@@H]1CCCN1C(=O)[C@@H](NC(=O)[C@H](C)N)[C@@H](C)CC)[C@@H](C)CC)C(=O)N[C@@H](Cc1c[nH]c2ccccc12)C(=O)N[C@@H](CCCN=C(N)N)C(=O)N[C@@H](CC(C)C)C(=O)N[C@@H](CC(C)C)C(=O)N[C@@H](CCCN=C(N)N)C(=O)N[C@@H](CCCCN)C(=O)NCC(=O)O	Pseudomonas aeruginosa PAO1	15

input: Form field: reported MIC of `CC(C)C[C@H](NC(=O)CNC(=O)[C@H](CCCCN)NC(=O)[C@H](CC(C)C)NC(=O)[C@H](CC(C)C)NC(=O)[C@H](CCCCN)NC(=O)[C@@H](N)CCCCN)C(=O)N[C@@H](CC(C)C)C(=O)N[C@@H](CCCCN)C(=O)NCC(=O)N[C@@H](Cc1c[nH]c2ccccc12)C(N)=O`
output: 64

* * *

Below are compounds with their MIC as measured on Staphylococcus aureus ATCC 43300.

compound	study system	MIC
CC[C@H](C)[C@@H]1NC(=O)CNC(=O)[C@H](CCCN=C(N)N)NC(=O)[C@H](Cc2ccc(O)cc2)NC(=O)[C@@H]2CSSC[C@H](NC1=O)C(=O)N[C@@H](Cc1ccc(O)cc1)C(=O)N[C@@H](CCCN=C(N)N)C(=O)N[C@@H](CCCN=C(N)N)C(=O)N[C@H](C(=O)N[C@@H](CCCN=C(N)N)C(=O)O)CSSC[C@H](NC(=O)[C@H](Cc1c[nH]c3ccccc13)NC(=O)[C@@H](N)CCCCN)C(=O)N[C@@H](Cc1ccccc1)C(=O)N[C@@H](CCCN=C(N)N)C(=O)N[C@@H](C)C(=O)N2 [KWCFRACYRGICYRRCR]	Staphylococcus aureus ATCC 43300	1.79 µM

input: # lookup: MIC of CC(C)C[C@H](NC(=O)CNC(=O)[C@H](CCCCN)NC(=O)[C@H](CC(C)C)NC(=O)[C@H](CC(C)C)NC(=O)[C@H](CCCCN)NC(=O)[C@@H](N)CCCCN)C(=O)N[C@@H](CC(C)C)C(=O)N[C@@H](CCCCN)C(=O)NCC(=O)N[C@@H](Cc1c[nH]c2ccccc12)C(N)=O [KKLLKGLLKGW]
output: > 128 µM

input: Give the measured MIC of CC[C@H](C)[C@H](N)C(=O)N[C@@H](CO)C(=O)N[C@@H](CCCCN)C(=O)N[C@@H](CCCN=C(N)N)C(=O)N[C@H](C(=O)N[C@@H](CC(C)C)C(=O)N[C@H](C(=O)NCC(=O)N[C@@H](CCCCN)C(=O)N[C@@H](CCCCN)C(N)=O)[C@@H](C)O)[C@@H](C)CC [ISKRILTGKK] .
output: > 224 µM
